tested on: MDA-MB-231; assay: Antitumor activity against human MDA-MB-231 cells xenografted in SCID mouse assessed as tumor growth inhibition at 40 mg/kg, po qd for 15 days and measured every 3 days; assay type: functional; details: MDA-MB-231, po, 360 h, time 15 day
Assignment: determine reported inhibition in vivo at 40 mg/kg/day for the given compounds.
Answers are plain numbers, in %.

These recorded examples may help you get a feel for the data.
compound_structure_string: Cc1ccc(NC(=O)c2ccc(Cl)c(C(F)(F)F)c2)cc1C#Cc1nn([C@H]2CC[C@H](O)CC2)c2ncnc(N)c12
unit_label: %
inhibition in vivo at 40 mg/kg/day: 96.1
//
compound_structure_string: Cc1ccc(NC(=O)c2ccc(C)c(C(F)(F)F)c2)cc1C#Cc1nn([C@H]2CC[C@H](O)CC2)c2ncnc(N)c12
unit_label: %
inhibition in vivo at 40 mg/kg/day: 96.2
//
compound_structure_string: Cc1ccc(NC(=O)c2cccc(C(F)(F)F)c2)cc1C#Cc1nn([C@H]2CC[C@H](O)CC2)c2ncnc(N)c12
unit_label: %
inhibition in vivo at 40 mg/kg/day: 89.1
//
compound_structure_string: Cc1ccc(NC(=O)c2cccc(C(F)(F)F)c2)cc1C#Cc1nn(C[C@@H](C)CO)c2ncnc(N)c12
unit_label: %
inhibition in vivo at 40 mg/kg/day: 78.1
//
compound_structure_string: Cc1ccc(NC(=O)c2cccc(C(F)(F)F)c2)cc1C#Cc1nn(C[C@H](C)CO)c2ncnc(N)c12
unit_label: %
inhibition in vivo at 40 mg/kg/day: 77.3

Please give inhibition in vivo at 40 mg/kg/day for each item listed below.
1. Cc1ccc(C(=O)Nc2cccc(C(F)(F)F)c2)cc1C#Cc1nn(C2CCN(C)CC2)c2ncnc(N)c12
2. Cc1ccc(NC(=O)c2ccc(C)c(C(F)(F)F)c2)cc1C#Cc1nn(C[C@H](C)CO)c2ncnc(N)c12

[91.2, 97.1]

---

experiment: AUC (0 to t) in Sprague-Dawley rat at 10 mg/kg, po administered via gavage by LC-MS analysis; type: ADME, organism-based; design: dose 10 mg/kg; conditions: in vivo
Assignment: determine reported AUC(0-t) for the given compounds.
One number for each entry, in µg·h/mL.

compound_structure_string: Cc1ccc(NC(=O)c2ccc(C)c(C(F)(F)F)c2)cc1C#Cc1nn([C@H]2CC[C@H](O)CC2)c2ncnc(N)c12
AUC(0-t) [µg·h/mL]: 2.86

Now turn to the next compound.
I am curious: what AUC(0-t) value has been reported for `Cc1ccc(NC(=O)c2cccc(C(F)(F)F)c2)cc1C#Cc1nn([C@H]2CC[C@H](O)CC2)c2ncnc(N)c12` ?
0.96

---

assay: Tmax in Sprague-Dawley rat at 10 mg/kg, po administered via gavage by LC-MS analysis; assay type: ADME, organism-based; settings: in vivo
Assignment: determine reported Tmax for the given molecules.
Give bare numbers, in h.

compound_structure_string: Cc1ccc(NC(=O)c2cccc(C(F)(F)F)c2)cc1C#Cc1nn([C@H]2CC[C@H](O)CC2)c2ncnc(N)c12
readout_kind: Tmax
observed_value: 6

Now turn to the next molecule.
I am curious: what Tmax value has been reported for `Cc1ccc(NC(=O)c2ccc(C)c(C(F)(F)F)c2)cc1C#Cc1nn([C@H]2CC[C@H](O)CC2)c2ncnc(N)c12` ?
4
